Experiment: Stability experiment using human liver microsomes
Type: in vitro ADME
Details: 5 μmol/L, 0.5 mg/mL human liver microsomes with NADPH, 15 minutes, 37° C.
observation_type: Human liver Ms stability (survival ratio) (%)

• Cc1cccc2c1c(Cc1c(-c3ccc4ccccc4c3C(=O)O)nc3ccccn13)cn2CCN1CCOCC1 [Example 23-(4)] = 100
• Cc1cccc2[nH]cc(Cc3c(-c4ccc5ccccc5c4C(=O)O)nc4ccccn34)c12 [Example 7] = 93
• Cc1ccc2nc(-c3ccccc3C(=O)O)c(Cc3cn(C)c4cccc(C)c34)n2c1 [Example 11] = 86
• Cc1cccc2[nH]cc(Cc3c(-c4ccc5ccccc5c4C(=O)O)nc4ccc(F)cn34)c12 [Example 16] = 88
• Cc1c(F)ccc2[nH]cc(Cc3c(-c4ccccc4C(=O)O)nc4ccccn34)c12 [Example 19] = 100
• Cc1cccc2c1c(Cc1c(-c3ccccc3C(=O)O)nc3ccccn13)cn2C [Example 13] = 93
• CCn1cc(Cc2c(-c3ccccc3C(=O)O)nc3ccccn23)c2c(C)cccc21 [Example 15] = 87

* * *

Experiment: Measurement of cell toxicity using HepG2 human liver cancer cell lines (ATP, Celltiter Glo)
Type: cell-based
Settings: human, HepG2 cells; 24 hours of exposure, ATP concentration
Mark Yes only for IC50 at 24 h values smaller than 200 µM; exact matches and larger values are No.

* Cc1ccc2nc(-c3ccccc3C(=O)O)c(Cc3cn(C)c4cccc(C)c34)n2c1 | No
* Cc1cccc2c1c(Cn1c(Sc3ccccc3C(=O)O)nc3ccccc31)cn2C [Comparative Compound 4, reference compound] | Yes
* CCn1cc(Cc2c(-c3ccccc3C(=O)O)nc3ccccn23)c2c(C)cccc21 | No
* Cc1cccc2scc(Cc3c(SCCCC(=O)O)nc4ccccn34)c12 [Comparative Compound 2, reference compound] | No
* Cc1cccc2c1c(Cc1c(-c3ccc4ccccc4c3C(=O)O)nc3ccccn13)cn2CCN1CCOCC1 | Yes
* Cc1cccc2scc(Cn3c(SCCCC(=O)O)nc4ccccc43)c12 [Comparative Compound 1, reference compound] | Yes
* Cc1cccc2[nH]cc(Cc3c(-c4ccc5ccccc5c4C(=O)O)nc4ccccn34)c12 | Yes
* O=C(O)c1ccccc1Sc1nc2ccccc2n1Cc1cccc2ccccc12 [Comparative Compound 3, reference compound] | Yes
* Cc1cccc2[nH]cc(Cc3c(-c4ccc5ccccc5c4C(=O)O)nc4ccc(F)cn34)c12 | Yes
* Cc1cccc2c1c(Cc1c(-c3ccccc3C(=O)O)nc3ccccn13)cn2C | No
* Cc1c(F)ccc2[nH]cc(Cc3c(-c4ccccc4C(=O)O)nc4ccccn34)c12 | No

* * *

Test system: HepG2 human liver cancer cell lines
Assay: Measurement of cell toxicity using HepG2 human liver cancer cell lines (ATP, Celltiter Glo)
Type: cell-based
Details: 24 hours of exposure, ATP concentration; concentration that produced toxicity in 10% of cells
observation_type: Cell toxicity in HepG2 human liver cancer cell lines IC10 (µM)

* CCn1cc(Cc2c(-c3ccccc3C(=O)O)nc3ccccn23)c2c(C)cccc21 | 115
* Cc1c(F)ccc2[nH]cc(Cc3c(-c4ccccc4C(=O)O)nc4ccccn34)c12 | 70
* Cc1cccc2scc(Cc3c(SCCCC(=O)O)nc4ccccn34)c12 [Comparative Compound 2, reference compound] | 66
* Cc1cccc2c1c(Cn1c(Sc3ccccc3C(=O)O)nc3ccccc31)cn2C [Comparative Compound 4, reference compound] | 53
* Cc1cccc2[nH]cc(Cc3c(-c4ccc5ccccc5c4C(=O)O)nc4ccc(F)cn34)c12 | 29
* O=C(O)c1ccccc1Sc1nc2ccccc2n1Cc1cccc2ccccc12 [Comparative Compound 3, reference compound] | 29
* Cc1cccc2c1c(Cc1c(-c3ccc4ccccc4c3C(=O)O)nc3ccccn13)cn2CCN1CCOCC1 | 79
* Cc1ccc2nc(-c3ccccc3C(=O)O)c(Cc3cn(C)c4cccc(C)c34)n2c1 | 248
* Cc1cccc2scc(Cn3c(SCCCC(=O)O)nc4ccccc43)c12 [Comparative Compound 1, reference compound] | 45
* Cc1cccc2[nH]cc(Cc3c(-c4ccc5ccccc5c4C(=O)O)nc4ccccn34)c12 | 58
* Cc1cccc2c1c(Cc1c(-c3ccccc3C(=O)O)nc3ccccn13)cn2C | 135
